Could you please report measured pIC50 for the items listed next?
- tested on: T1, CD96 extracellular region with His tag (CD96-His) (human, UniProt P40200 22-519)
- T1 construct: also called CD96-ECD-His; Bio-CD96-His (biotin-labelled form)
- T1 sequence: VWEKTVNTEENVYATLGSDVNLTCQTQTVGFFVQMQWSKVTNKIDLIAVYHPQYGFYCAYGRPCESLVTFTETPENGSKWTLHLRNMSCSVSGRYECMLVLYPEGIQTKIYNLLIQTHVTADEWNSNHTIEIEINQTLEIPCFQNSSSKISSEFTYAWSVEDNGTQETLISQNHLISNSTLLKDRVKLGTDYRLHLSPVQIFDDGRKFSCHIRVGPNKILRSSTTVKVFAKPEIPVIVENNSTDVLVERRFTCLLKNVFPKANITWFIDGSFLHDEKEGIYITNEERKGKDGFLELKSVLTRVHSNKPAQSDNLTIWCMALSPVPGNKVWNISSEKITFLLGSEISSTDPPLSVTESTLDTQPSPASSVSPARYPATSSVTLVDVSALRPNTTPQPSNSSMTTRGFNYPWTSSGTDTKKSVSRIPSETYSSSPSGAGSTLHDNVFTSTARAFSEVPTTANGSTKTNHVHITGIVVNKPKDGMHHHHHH
- method summary: blocking cell ELISA: antibody premixed with CD96 antigen (0.5 ug/mL), binding to fixed CD155-CHO cells
Remember the convention: pIC50 equals -log10 of concentration in molar.

(Q) Recall and state the measured pIC50 for ch1722 (antibody, human IgG4 S228P, kappa, V domains shown, also called chi722; chimeric antibody corresponding to m1722) VH: QVQLQQPGAELVKPGTSVKLSCKASGNTFIDYWMHWVKQRPGQGLEWIGMLHPNSGTTSFNEKFKIKTTLTIDKSSSTAYMQLSSLTSEDSAIYYCASDYSGPFAYWGQGTLVTVSA VL: QIVLTQSPGIMSAFPGEKVTMTCSASSSVNYIHWYQQKSGTSPKRWIFDTSKLASGVPARFSGSGSGTSYSLTISSMEAEDAATYYCQQWRSNPLTFGAGTKLELKR .
(A) 9.80

(Q) Recall and state the measured pIC50 for ch1718 (antibody, human IgG4 S228P, kappa, V domains shown, also called chimeric antibody corresponding to m1718) VH: EFQLQQSGPELVKPGASVKISCKASAYSITDYNMNWVKQSNGKSLEWIGVINPSYGITDYNQNFKDKATLTVDQSSSTAYMQLNSLTSEDSAVYYCAIQLRLPGYFDVWGTGTTVIVSS VL: DIKMTQSPSSMYASLGERVTITCKASQDINNYLNWFQQKPGKSPKTLIYRANRLVDGVPSRFSGSGSGQDYSLTISSLEYEDMGIYYCLKYDEFPYTFGGGTKVEIKR .
(A) 10.02
